METHOD_DESCRIPTION: Cytostatic effect on NHDF cells in the anti-HCMV cytopathogenicity test plates
Format: cell-based
CONDITION_NOTES: human, human prepuce fibroblasts (NHDF cells), 6 days incubation, visual assessment, concentration at which no visible cytostatic effects are evident vs untreated cell control
Counter-ions that a name gives are not always drawn.
Note to self: use Criterion met only for CC50 at 6 days readings below 20 µM; a reading exactly at 20 µM still gets Criterion not met.

{"columns": ["MOLECULE", "QUALITATIVE_LABEL"],
 "data": [
  ["COc1ccc(C(F)(F)F)cc1N1C(N2CCN(c3ccc(F)cc3)CC2)=Nc2c(F)cccc2C1CC(=O)O (single isomer, unassigned)", "Criterion met"],
  ["COc1ccc(Cl)cc1N1C(N2CCN(c3ccc(F)cc3)CC2)=Nc2c(F)cccc2C1CC(=O)O (single isomer, unassigned) [Example 23, hydrochloride]", "Criterion not met"]
]}

Request: Is CC50 at 6 days strictly under 20 µM for the entry Cc1cccc(N2CCN(C3=Nc4c(F)cccc4C(CC(=O)O)N3c3cccc(C(F)(F)F)c3)CC2)c1 (single isomer, unassigned) [Example 9, hydrochloride] ?
Response: Criterion met

Request: Is CC50 at 6 days strictly under 20 µM for the entry NC(=O)c1ccc2c(c1)C(CC(=O)O)N(c1cccc(C(F)(F)F)c1)C(N1CCN(c3cccc(Cl)c3)CC1)=N2 (centres unmarked) ?
Response: Criterion not met

Request: Is CC50 at 6 days strictly under 20 µM for the entry O=C(O)CC1c2cccc(F)c2N=C(N2CCN(c3ccc(F)cc3)CC2)N1c1cccc(C(F)(F)F)c1 (single isomer, unassigned) ?
Response: Criterion met

###

Tested on: HCMV
METHOD_DESCRIPTION: Anti-HCMV (anti-human cytomegalovirus) cytopathogenicity test
Assay type: cell-based
CONDITION_NOTES: Human betaherpesvirus 5, NHDF, 144 h; read-out: HCMV EC50
PROPERTY: EC50 (nM)
Output spec: scalar in nM, unitless text.

EC50 recorded for this compound, COc1ccc(C(F)(F)F)cc1N1C(N2CCN(c3ccc(F)cc3)CC2)=Nc2c(F)cccc2C1CC(=O)O (single isomer, unassigned) , is 2

EC50 recorded for this compound, COc1cccc(N2CCN(C3=Nc4c(F)cccc4C(CC(=O)O)N3c3cc(C(F)(F)F)ccc3OC)CC2)c1 (single isomer, unassigned) , is 2

EC50 recorded for this compound, NC(=O)c1ccc2c(c1)C(CC(=O)O)N(c1cccc(C(F)(F)F)c1)C(N1CCN(c3cccc(Cl)c3)CC1)=N2 (stereo not shown) , is 70

EC50 recorded for this compound, O=C(O)CC1c2cccc(F)c2N=C(N2CCN(c3ccc(F)cc3)CC2)N1c1cccc(C(F)(F)F)c1 (single isomer, unassigned) , is 16
